# credit: PubChem BioAssay (NCATS)

PROTOCOL_DESCRIPTION: Quantitative High-Throughput drug screen in 47 multiple myeloma cell lines against the NCATS MIPE library collection: H1112_PLB cell viability assay (AID 1918967; further: nearly all actives have a fitted effect of over 30% in size)
RECORDED_CONDITIONS: H1112 myeloma cells viability, ATP luminescence, 48 h; series mostly up to 45.8 µM
Inconclusive results are not listed. Calls of active or inactive are those of the source. The call rests on the fitted dose curve; in most records, active means well fitted cell-killing curve with a large enough effect; inconclusive means small, poorly fitted or top-dose-only effect, or effect the other way; inactive means no such curve, though single readings can be large or run the other way.
Pick one and only one: active, inactive

Known results for compounds:
- COMPOUND: "COc1ccccc1-c1cccc(-c2c(O)c3cc(C#N)c(Cl)cc3[nH]c2=O)c1"
  GROUP_LABEL: "inactive"
- COMPOUND: "O=C(C=Cc1ccc(/C=C/C(=O)Nc2ccc(C3=NCCN3)cc2)cc1)Nc1ccc(C2=NCCN2)cc1"
  GROUP_LABEL: "inactive"
- COMPOUND: "OC(CCN1CCCCC1)(c1ccccc1)C1CC2C=CC1C2 (stereo not given)"
  GROUP_LABEL: "inactive"
- COMPOUND: "C[C@H](NC(=O)Cc1cc(F)cc(F)c1)C(=O)N[C@@H]1C(=O)N(C)c2ccccc2-c2ccccc21"
  GROUP_LABEL: "active"
- COMPOUND: "COc1ccc(CC2=NN3C([C@@H](CCc4ccccc4)[C@@H](C)O)=NC(C)C3C(=O)N2)cc1OC (stereo not given in full)"
  GROUP_LABEL: "inactive"

Per the assay record, what outcome was assigned to Cc1cc2c(C(C)C)c(O)c(O)c(C=O)c2c(O)c1-c1c(C)cc2c(C(C)C)c(O)c(O)c(C=O)c2c1O ?
active

Give the logged outcome of this assay for the following compound: Nc1nc2ccc(OC(F)(F)F)cc2s1
inactive

Recorded test call requested for Cc1[nH]c(=O)c(C#N)cc1-c1ccc2nccn2c1
inactive

Record request — test call for Cc1cnc(NC(=O)C2=C(O)c3ccccc3S(=O)(=O)N2C)s1
inactive

Recorded call for Cc1cccc(-c2[nH]c(C(C)(C)C)nc2-c2ccc3nccnc3c2)n1 ?
active

----------
PROTOCOL_DESCRIPTION: Quantitative High-Throughput drug screen in 47 multiple myeloma cell lines against the NCATS MIPE library collection: Karpas25_ECACC cell viability assay (AID 1918968; further: nearly all actives have a fitted effect of over 35% in size)
RECORDED_CONDITIONS: Karpas25 myeloma viability, CellTiter-Glo ATP, 48 h; series mostly up to 45.8 µM
From the text: PI: Beverly A. Mock Ph.D. Laboratory of Cancer Biology and Genetics, Center for Cancer Research, National Cancer Institute, National Institute of Health, Bethesda, Maryland […] 5; Detector; 425V; Luminescence; Viewlux PerkinElmer. […] 1. […] Briefly, the corresponding myeloma cell lines were screened in 1,536-well plates with 500 cells, 5-uL per well for inhibition of cell viability (assessed by measuring ATP levels with CellTiterGlo). […]
Inconclusive results are not listed. Calls of active or inactive are those of the source. Calls follow the shape of the dose curve; as a rule, active = well fitted cell-killing curve with a large enough effect; inconclusive = small, poorly fitted or top-dose-only effect, or effect the other way; inactive = no such curve, though single readings can be large or run the other way.
Choose the fitting class; nothing outside active, inactive is accepted.

- MOLECULE: "CCn1cc(C(=O)O)c(=O)c2cc(F)c(N3CCNC(C)C3)c(F)c21 (centres undefined)"
  GROUP_LABEL: "inactive"

Write down the call the test reported for this molecule. Item: CCOc1ccn(-c2ccc(F)cc2)c(=O)c1C(=O)Nc1ccc(Oc2ccnc(N)c2Cl)c(F)c1
active

What did this assay record as the result for Cc1cn[nH]c1 ?
active

Fill in: this test's call for CNC(=O)c1ccc(C)c(-n2c(C)cc(OCc3ccc(F)cc3F)c(Br)c2=O)c1 is ___
active

Can you look up the reported call for Nc1ccc(S(=O)(=O)Nc2ccnn2-c2ccccc2)cc1 for me?
inactive

Outcome logged for Cc1cc(C=c2sc3nc4ccccc4n3c2=O)c(C)n1-c1ccccc1 in this assay:
inactive

Outcome? Cc1cc2c(C(C)C)c(O)c(O)c(C=O)c2c(O)c1-c1c(C)cc2c(C(C)C)c(O)c(O)c(C=O)c2c1O
active

Field: outcome | Entry: NC(=O)C1CCCc2c1[nH]c1ccc(Cl)cc21 (centres undefined)
inactive

State the result this test recorded for COc1nc(-c2ccc3c(c2)OCO3)n(-c2ccc(NC(=O)CSc3ccccc3)cc2)n1 .
inactive

----------
PROTOCOL_DESCRIPTION: qHTS of pediatric cancer cell lines to identify multiple opportunities for drug repurposing: Primary screen for SJ-GBM2 cells (AID 1347091)
RECORDED_CONDITIONS: SJ-GBM2 viability, CellTiter-Glo luminescence, 48 h; series mostly up to 46 µM
Method: Drug repurposing or repositioning has been offered as a strategy for drug development in oncology programs. […] [1] Shen, M et al. Quantitative high-throughput phenotypic screening of pediatric cancer cell lines identifies multiple opportunities for drug repurposing. […] Cells were assayed in growth media at a density of 500-1,000 cells/well. […] After a 15 min incubation at room temperature, samples were analyzed for luminescence intensity using a ViewLux High-throughput CCD imager equipped with clear filters.
Records with an inconclusive call do not appear. Activity calls are given as the source filed them. Calls follow the shape of the dose curve; as a rule, active = well fitted cell-killing curve with a large enough effect; inconclusive = small, poorly fitted or top-dose-only effect; inactive = no such curve, though single readings can be large or run the other way.
Output constraint: value belongs to Y (active), N (inactive)

- STRUCTURE: "NC(N)=NC(=O)c1nc(Cl)c(N)nc1N"
  GROUP_LABEL: "N"
- STRUCTURE: "N[C@@H]1CONC1=O"
  GROUP_LABEL: "N"
- STRUCTURE: "Cn1cnc2c(F)c(Nc3ccc(Br)cc3Cl)c(C(=O)NOCCO)cc21"
  GROUP_LABEL: "N"

What call does the record list for CCn1c(-c2nonc2N)nc2c(C#CC(C)(C)O)ncc(OC[C@H]3CCCNC3)c21 ?
Y

Outcome logged for Cc1c(CN2CCN(C(=O)C(C)C)CC2)sc2c(N3CCOCC3)nc(-c3cnc(N)nc3)nc12 in this assay:
Y

Which outcome did this test record for the compound CN(C(=O)c1ccc(F)cc1C(F)(F)F)C1CCN(c2nnc(-c3ccnn3C)c3ccccc23)CC1 ?
N

Answer briefly: the call reported for O=C(C1CC1)N1CC[C@@H](Cn2c(-c3ccc(-c4ccc5occc5c4)cc3)nc3cnccc32)C1 in this assay.
Y

Hi, sorry to bother you, what did the test record for Nc1ncnc2nc(-c3ccc(N4CCOCC4)nc3)cc(-c3cccc(Br)c3)c12 ?
N

I would be grateful if you could indicate the recorded call for CCCn1c(=O)c2[nH]c(C34CC5CC3C[C@@H](C5)C4)nc2n(CCC)c1=O .
Y

Per the assay record, what outcome was assigned to NS(=O)(=O)c1cc2c(cc1Cl)NC=NS2(=O)=O ?
N

----------
System: 7G8
PROTOCOL_DESCRIPTION: qHTS profiling for inhibitors of Plasmodium falciparum proliferation (AID 504749); further: nearly all actives have a fitted effect of over 60% in size; further: potency means the concentration at half of the fitted maximal effect
RECORDED_CONDITIONS: P. falciparum in erythrocytes, SYBR Green DNA, 72 h; series mostly up to 28.7 µM
Records with an inconclusive call do not appear. Active and inactive are the calls of the source. Calls come from the whole dose curve; as a rule, active = well fitted inhibition curve with a large enough effect; inconclusive = small, poorly fitted or top-dose-only effect; inactive = flat fitted curve, though single readings scatter.
OBSERVABLE: Potency

The following compounds have reported results that may help.
- COMPOUND: "Cc1c(C)c2c(c(C)c1O)CCC(C)(COc1ccc(CC3SC(=O)NC3=O)cc1)O2 (stereo not drawn)"
  Potency: "10 µM (active)"
- COMPOUND: "CCc1ccc(CCOc2ccc(CC3SC(=O)NC3=O)cc2)nc1 (stereo not drawn)"
  Potency: "inactive"
- COMPOUND: "Nc1ccc(S(=O)(=O)Nc2ccnn2-c2ccccc2)cc1"
  Potency: "inactive"
- COMPOUND: "NC[C@H](O)c1ccc(O)c(O)c1"
  Potency: "inactive"
- COMPOUND: "N[C@@H]1CONC1=O"
  Potency: "inactive"
- COMPOUND: "CCCc1nc2c(C)cc(-c3nc4ccccc4n3C)cc2n1Cc1ccc(-c2ccccc2C(=O)O)cc1"
  Potency: "0.316 µM (active)"
- COMPOUND: "O=NN(CCCl)C(=O)NCCCl"
  Potency: "inactive"
- COMPOUND: "NC(=O)c1cnccn1"
  Potency: "inactive"

The reported value for N#Cc1ccc(C(c2ccc(C#N)cc2)n2cncn2)cc1 in terms of Potency is inactive

Reported Potency of NCCc1ccc(O)c(O)c1 : inactive

Measured Potency of CC(C[N+](C)(C)C)OC(N)=O (stereo not drawn) : inactive

For Nc1nc2ccc(OC(F)(F)F)cc2s1 the compound record lists Potency as inactive

Per the record, O=C1CCc2cc(OCCCCc3nnnn3C3CCCCC3)ccc2N1 has Potency of inactive

----------
PROTOCOL_DESCRIPTION: qHTS for differential inhibitors of proliferation of Plasmodium falciparum line GB4 (AID 1816);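 further: parasite growth measured after 72 h incubation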; further: potency means the concentration at half of the fitted maximal effect
RECORDED_CONDITIONS: Plasmodium falciparum GB4 proliferation inhibition; series mostly up to 28.7 µM
Results filed as inconclusive are left out. The source made the active and inactive calls. The call rests on the fitted dose curve; in most records, active means well fitted curve in the direction sought with a large enough effect; inconclusive means small, poorly fitted or top-dose-only effect, or another doubt; inactive means no such curve, though single readings can be large or run the other way.
OBSERVABLE: Potency

A selection of reference data follows.
- COMPOUND: "Oc1ccc(C2CNCCc3c2cc(O)c(O)c3Cl)cc1 (stereo not drawn)"
  Potency: "10 µM (active)"
- COMPOUND: "O=NN(CCCl)C(=O)NCCCl"
  Potency: "inactive"
- COMPOUND: "CCOC(=O)C1=C[C@]2(CC)CCCN3CCc4c(n1c1ccccc41)[C@@H]32"
  Potency: "7.94 µM (active)"
- COMPOUND: "CCC(C)N(C)C(=O)c1cc2ccccc2c(-c2ccccc2Cl)n1 (stereo not drawn)"
  Potency: "12.6 µM (active)"
- COMPOUND: "O=c1[nH]cnc2[nH]ncc12"
  Potency: "inactive"
- COMPOUND: "CC(C[N+](C)(C)C)OC(N)=O (stereo not drawn)"
  Potency: "inactive"
- COMPOUND: "N[C@@H]1CONC1=O"
  Potency: "inactive"
- COMPOUND: "NS(=O)(=O)c1cc2c(cc1Cl)NC=NS2(=O)=O"
  Potency: "inactive"
- COMPOUND: "NCCCC(N)(C(=O)O)C(F)F (stereo not drawn)"
  Potency: "inactive"
- COMPOUND: "NC(=O)c1cnccn1"
  Potency: "inactive"

Given item O=C1CCC(N2C(=O)c3ccccc3C2=O)C(=O)N1 (stereo not drawn) , the value recorded as its Potency is inactive

Looking up CCOC(=O)N1CCC(=C2c3ccc(Cl)cc3CCc3cccnc32)CC1 , I found its Potency recorded as 10 µM (active)

Per the record, N=c1nc(N2CCCCC2)cc(N)n1O has Potency of inactive
